# Test system: SARS-CoV-2 virus (hCoV-19/Egypt/NRC-03/2020)
# procedure_details: microbe, parasite or virus in culture
# Type: cell-based
# experimental_parameters: Severe acute respiratory syndrome coronavirus 2, Vero C1008; Vero E6 cells infected with hCoV-19/Egypt/NRC-03/2020, 72 h; read-out: IC50 against SARS-CoV-2 (Figure 2)
property_measured: pIC50
FYI, pIC50 means -log10 of a concentration in mol per litre.

Output measured pIC50 for this item: COc1cc(OC)c2c(O)c3c(=O)cc(C)oc3c(-c3c(OC)cc(OC)c4c(O)c5c(=O)cc(C)oc5cc34)c2c1
3.98
